Observed IC50 for 72 kDa type IV collagenase (Homo sapiens, UniProt P08253), reported per entry below.
parameter.measured: IC50 (µM)

Consider the reported IC50 for these compounds:
O=C(CN(Cc1ccccc1)C(=O)CN(CCCc1ccccc1)C(=O)Nc1ccc(Oc2ccccc2)cc1)NO    0.3
CC(C)N(CC(=O)N(CC(=O)NO)C(C)(C)C)C(=O)Nc1ccc(Oc2ccccc2)cc1    155

a: O=C(CN(C(=O)CN(CCCc1ccccc1)C(=O)Nc1ccc(Oc2ccccc2)cc1)C(c1ccccc1)c1ccccc1)NO
b: CCCC(C)N(CC(=O)NO)C(=O)CN(CCCc1ccccc1)C(=O)Nc1ccc(Oc2ccccc2)cc1 (stereo in doubt; form 2)
c: CCCCCCCN(CC(=O)NO)C(=O)CN(CCCCC)C(=O)Nc1ccc(Oc2ccccc2)cc1
Ask: List items by IC50 in falling order. Form entry: labels listed in requested order.
Reply: a, b, c

* * *

tested.on: 72 kDa type IV collagenase (Homo sapiens)
parameter.measured: IC50 (µM)

CCCCCN(CC(=O)NO)C(=O)CN(C(=O)Nc1ccc(Oc2ccccc2)cc1)C(C)CCC (stereo not given)    160
CCCCCN(CC(=O)NO)C(=O)CN(CCCc1ccccc1)C(=O)Nc1ccc(Oc2ccccc2)cc1    100

A: CCC(C)N(CC(=O)NO)C(=O)CN(CCCc1ccccc1)C(=O)Nc1ccc(Oc2ccccc2)cc1 (stereo not given)
B: CCCCN(CC(=O)NO)C(=O)CN(CCc1ccc(F)cc1)C(=O)Nc1ccc(Oc2ccccc2)cc1
Ask: Compare A and B by numeric IC50 and name the larger one. Write down the label attached to your selection.
Reply: A
(A: 370 µM, B: 51 µM)

* * *

pIC50: −log10 of the molar value.
Endpoint: pIC50. System: 72 kDa type IV collagenase (Homo sapiens, UniProt P08253). Items follow.
Sequence (P08253 whole entry): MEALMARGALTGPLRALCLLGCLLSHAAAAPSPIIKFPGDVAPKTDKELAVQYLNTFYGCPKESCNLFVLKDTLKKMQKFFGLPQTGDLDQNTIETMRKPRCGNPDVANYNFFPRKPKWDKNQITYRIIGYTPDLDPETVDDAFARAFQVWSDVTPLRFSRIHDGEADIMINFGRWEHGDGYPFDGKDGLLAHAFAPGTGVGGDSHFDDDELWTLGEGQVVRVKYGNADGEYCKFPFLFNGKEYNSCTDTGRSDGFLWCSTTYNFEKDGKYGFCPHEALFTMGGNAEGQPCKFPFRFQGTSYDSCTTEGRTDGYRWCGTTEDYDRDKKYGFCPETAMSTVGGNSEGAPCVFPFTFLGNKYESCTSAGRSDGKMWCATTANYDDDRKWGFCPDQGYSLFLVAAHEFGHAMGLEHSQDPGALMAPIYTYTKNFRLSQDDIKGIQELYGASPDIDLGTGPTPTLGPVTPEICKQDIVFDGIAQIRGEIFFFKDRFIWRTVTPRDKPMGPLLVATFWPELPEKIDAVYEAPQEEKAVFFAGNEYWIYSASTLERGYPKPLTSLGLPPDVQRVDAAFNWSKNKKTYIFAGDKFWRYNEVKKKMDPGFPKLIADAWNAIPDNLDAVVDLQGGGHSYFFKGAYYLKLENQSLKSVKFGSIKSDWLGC

Sample records with pIC50:
CCCCN(CC(=O)NO)C(=O)CN(CC1CCCCC1)C(=O)Nc1ccc([N+](=O)[O-])cc1C    < 3.30
CCCCCN(CC(=O)NO)C(=O)CN(CCCCc1ccccc1)C(=O)Nc1cc(Cl)ccc1OC    < 3.30

Consider the additional molecule presented here.
Lab note: molecule `CC(C)(C)N(CC(=O)NO)C(=O)CN(CCCc1ccccc1)C(=O)Nc1ccc(Oc2ccccc2)cc1` tested on 72 kDa type IV collagenase (Homo sapiens, UniProt P08253); recorded pIC50 was < 3.30
